assay: Inhibition of FPTase at 10 ug/mL
Calls of active or inactive are those of the source. No cut-off for these calls is given here.
test-readout: Activity

- C=C1CC/C=C(\C)CC[C@@H]2[C@H](CC/C=C(\C)CO)C(=O)OC[C@@H]12 [ACALYCIXENIOLIDE I]: inactive
- C=C1CC/C=C(\C)CC[C@@H]2[C@H](C/C=C/C(C)(C)O)C(=O)OC[C@@H]12 [ACALYCIXENIOLIDE J]: inactive
- C=C1CC/C=C(\C)CC[C@@H]2[C@H](CC/C=C\CO)C(=O)OC[C@@H]12 [ACALYCIXENIOLIDE K]: inactive
- C=C1CC/C=C(\C)CC[C@@H]2/C(=C\C=C\C(C)(C)O)C(=O)OC[C@@H]12 [9-DEOXYXENIOLIDE A]: inactive
- C=C1CC[C@@H]2O[C@@]2(C)CC[C@@H]2[C@H](CCC=C(C)C)C(=O)OC[C@@H]12: inactive
- C=C1CC/C=C(\C)CC[C@@H]2[C@H](CC/C=C/CO)C(=O)OC[C@@H]12 [ACALYCIXENIOLIDE L]: inactive

Kindly consider the entry below.
So what's the measured Activity for this one? C=C1CC[C@@H]2O[C@@]2(C)CC[C@@H]2[C@H](CC/C=C(\C)C(=O)OC)C(=O)OC[C@@H]12 [ACALYCIXENIOLIDE H]
inactive
